test.description: Oral bioavailability in male ICR (CD-1) mouse at 10 mg/kg by LC-MS//MS analysis
Format: ADME, organism-based
condition: in vivo
quantity.measured: bioavailability

Incoming: Answer with reported bioavailability of C[C@@H](n1ccc2cc(Cl)ccc2c1=O)[C@](O)(Cn1cnnn1)c1ccc(F)cc1F
Outgoing: 36.8%

----------
test.description: AUC (0 to t) in male ICR (CD-1) mouse at 5 mg/kg, iv by LC-MS/MS analysis
Type: ADME, organism-based
condition: in vivo
quantity.measured: AUC(0-t) (ng·h/mL)
State just the number; it will be interpreted in ng·h/mL.

Incoming: Annotate the compound C[C@@H](n1ccc2cc(Cl)ccc2c1=O)[C@](O)(Cn1cnnn1)c1ccc(F)cc1F with its measured AUC(0-t).
Outgoing: 18500

----------
Provide the reported MIC50 of each item.
System: Candida parapsilosis
test.description: Antifungal activity against Candida parapsilosis 22019 assessed as inhibition of fungal growth incubated for 24 hrs by CLSI protocol based microbroth dilution method
Assay type: functional
condition: Lodderomyces parapsilosis
Number only, in µg/mL; omit the unit.

Incoming: Given C[C@@H](n1ncc2cn(-c3ccc(C#N)cc3)nc2c1=O)[C@](O)(Cn1cncn1)c1ccc(F)cc1F , report its MIC50 on Candida parapsilosis.
Outgoing: 1

Incoming: GET MIC50 where system = Candida parapsilosis and item = C[C@@H](n1ncc2cc(Cl)ccc2c1=O)[C@](O)(Cn1cnnn1)c1ccc(F)cc1F
Outgoing: 0.063

Incoming: Look up and report measured MIC50 (Candida parapsilosis) for the following molecule: C[C@@H](n1ncc2cn(-c3ccc(F)cc3)nc2c1=O)[C@](O)(Cn1cncn1)c1ccc(F)cc1F
Outgoing: 2

----------
test.description: Clearance in male ICR (CD-1) mouse at 5 mg/kg, iv by LC-MS/MS analysis
Format: ADME, organism-based
condition: in vivo
quantity.measured: clearance
Entry format: amount then unit.

Incoming: Return clearance for the following molecule: C[C@@H](n1ccc2cc(Cl)ccc2c1=O)[C@](O)(Cn1cnnn1)c1ccc(F)cc1F
Outgoing: 3.27 mL/min/kg

----------
quantity.measured: IC50 (µM)
Report the figure in µM without appending any unit label.

Incoming: Retrieve IC50 on Cytochrome P450 2D6 (Homo sapiens); query C[C@@H](n1cnc2cc(Cl)ccc2c1=O)[C@](O)(Cn1cncn1)c1ccc(F)cc1F
Sequence (P10635 whole entry): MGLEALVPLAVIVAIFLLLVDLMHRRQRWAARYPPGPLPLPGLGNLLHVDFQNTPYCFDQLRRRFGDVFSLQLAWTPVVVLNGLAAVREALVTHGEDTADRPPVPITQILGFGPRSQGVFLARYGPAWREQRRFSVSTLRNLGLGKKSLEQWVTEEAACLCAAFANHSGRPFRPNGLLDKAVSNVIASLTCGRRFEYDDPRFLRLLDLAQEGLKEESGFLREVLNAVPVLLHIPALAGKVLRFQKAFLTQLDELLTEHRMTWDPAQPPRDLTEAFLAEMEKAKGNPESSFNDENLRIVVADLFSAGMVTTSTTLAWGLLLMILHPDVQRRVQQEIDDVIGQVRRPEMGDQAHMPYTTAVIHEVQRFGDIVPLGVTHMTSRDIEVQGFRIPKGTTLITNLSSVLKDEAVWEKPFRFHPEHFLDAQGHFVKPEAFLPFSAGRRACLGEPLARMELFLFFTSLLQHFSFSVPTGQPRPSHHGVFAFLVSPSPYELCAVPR
Outgoing: 31.7

----------
Please go through the items and note down their MIC50.
System: Pichia kudriavzevii
test.description: Antifungal activity against Candida krusei 4946 assessed as inhibition of fungal growth incubated for 24 hrs by CLSI protocol based microbroth dilution method
Assay type: functional
Give just the numeric value; µg/mL need not be written.

Incoming: Find the measured MIC50 of C[C@@H](n1ccc2ccccc2c1=O)[C@](O)(Cn1cncn1)c1ccc(F)cc1F and report it.
Outgoing: 0.125

Incoming: Answer with reported MIC50 of C[C@@H](n1ncc2cn(-c3ccc(F)cc3)nc2c1=O)[C@](O)(Cn1cncn1)c1ccc(F)cc1F
Outgoing: 8

Incoming: Fill in MIC50 for record C[C@@H](n1ccc2cc(Cl)ccc2c1=O)[C@](O)(Cn1cncn1)c1ccc(F)cc1F
Outgoing: 0.063

----------
For each of the molecules below, state its MIC50.
Tested on: [Candida] auris
test.description: Antifungal activity against fluconazole resistant Candida auris 887 assessed as inhibition of fungal growth incubated for 48 hrs by CLSI protocol based microbroth dilution method
Type: functional
condition: Candidozyma auris
Give the number; µg/mL is assumed, so skip it.

Incoming: Give recorded MIC50. C[C@@H]1[C@H](O)[C@@H](C)/C=C/C=C/C=C/C=C/C=C/C=C/C=C/[C@H](O[C@@H]2O[C@H](C)[C@@H](O)[C@H](N)[C@@H]2O)C[C@@H]2O[C@](O)(C[C@@H](O)C[C@@H](O)[C@H](O)CC[C@@H](O)C[C@@H](O)CC(=O)O[C@H]1C)C[C@H](O)[C@H]2C(=O)O
Outgoing: 2

Incoming: Report MIC50, nothing else, for this molecule: C[C@@H](n1ccc2cc(Cl)ccc2c1=O)[C@](O)(Cn1cnnn1)c1ccc(F)cc1F
Outgoing: 0.5

----------
quantity.measured: pIC50
Please treat pIC50 as minus the base-10 logarithm of the molar concentration.

Incoming: Recall the reported pIC50 of C[C@@H](n1cnc2cc(Cl)ccc2c1=O)[C@](O)(Cn1cncn1)c1ccc(F)cc1F on Cytochrome P450 3A4 (Homo sapiens) and write it down.
Sequence (P08684 whole entry): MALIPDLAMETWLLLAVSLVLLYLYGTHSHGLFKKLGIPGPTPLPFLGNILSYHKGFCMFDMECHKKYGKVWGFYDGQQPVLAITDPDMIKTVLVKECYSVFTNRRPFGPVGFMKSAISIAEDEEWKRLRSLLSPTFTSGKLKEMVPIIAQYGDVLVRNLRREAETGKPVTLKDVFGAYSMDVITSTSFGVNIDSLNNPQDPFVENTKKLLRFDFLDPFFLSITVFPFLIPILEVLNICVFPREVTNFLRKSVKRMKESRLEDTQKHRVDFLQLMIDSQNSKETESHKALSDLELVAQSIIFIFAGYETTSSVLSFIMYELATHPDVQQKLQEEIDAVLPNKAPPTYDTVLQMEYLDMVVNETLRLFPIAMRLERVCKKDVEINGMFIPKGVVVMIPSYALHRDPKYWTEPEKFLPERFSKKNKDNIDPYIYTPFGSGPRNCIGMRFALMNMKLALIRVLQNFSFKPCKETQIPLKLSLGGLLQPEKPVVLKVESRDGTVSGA
Outgoing: 7.40

----------
Would you kindly list MIC50 for each of these compounds?
Tested on: Pichia kudriavzevii
test.description: Antifungal activity against Candida krusei 4946 assessed as inhibition of fungal growth incubated for 24 hrs by CLSI protocol based microbroth dilution method
Assay type: functional
Numbers only here, please. The scale is µg/mL.

Incoming: Return the recorded MIC50 value; entry: C[C@@H](n1ccc2cc(-c3ccccc3)ccc2c1=O)[C@](O)(Cn1cncn1)c1ccc(F)cc1F
Outgoing: 1

Incoming: Please list MIC50 recorded for the compound O[C@@](Cn1cnnn1)(c1ccc(F)cc1F)C(F)(F)c1ccc(-c2ccc(OCC(F)(F)F)cc2)cn1
Outgoing: 0.5

Incoming: Fill in MIC50 for record C[C@@H](n1ncc2cc(Cl)ccc2c1=O)[C@](O)(Cn1cncn1)c1ccc(F)cc1F
Outgoing: 0.125

Incoming: Provide measured MIC50 value, entry: C[C@@H](n1ccc2cc(F)ccc2c1=O)[C@](O)(Cn1cncn1)c1ccc(F)cc1F
Outgoing: 0.016

Incoming: Input C[C@@H](n1ncc2cc(Cl)ccc2c1=O)[C@](O)(Cn1cnnn1)c1ccc(F)cc1F , output reported MIC50.
Outgoing: 0.5

----------
Would you kindly list MIC50 for each of these compounds?
System: [Candida] auris
test.description: Antifungal activity against fluconazole resistant Candida auris 888 assessed as inhibition of fungal growth incubated for 48 hrs by CLSI protocol based microbroth dilution method
Assay type: functional
condition: Candidozyma auris
Numeric answer only, unit µg/mL assumed.

Incoming: Please list MIC50 recorded for the compound C[C@@H]1[C@H](O)[C@@H](C)/C=C/C=C/C=C/C=C/C=C/C=C/C=C/[C@H](O[C@@H]2O[C@H](C)[C@@H](O)[C@H](N)[C@@H]2O)C[C@@H]2O[C@](O)(C[C@@H](O)C[C@@H](O)[C@H](O)CC[C@@H](O)C[C@@H](O)CC(=O)O[C@H]1C)C[C@H](O)[C@H]2C(=O)O [AMPHOTERICIN B]
Outgoing: 2

Incoming: Give reported MIC50 value for C[C@@H](n1ccc2cc(Cl)ccc2c1=O)[C@](O)(Cn1cncn1)c1ccc(F)cc1F
Outgoing: 0.25

Incoming: Quickly give me recorded MIC50 for C[C@@H](n1cnc2cc(Cl)ccc2c1=O)[C@](O)(Cn1cncn1)c1ccc(F)cc1F [ALBACONAZOLE]
Outgoing: 0.5

Incoming: Consider the compound C[C@@H](n1cnc2cc(Cl)ccc2c1=O)[C@](O)(Cn1cnnn1)c1ccc(F)cc1F . State its measured MIC50.
Outgoing: 16

Incoming: Answer with reported MIC50 of C[C@@H](n1ncc2cc(Cl)ccc2c1=O)[C@](O)(Cn1cnnn1)c1ccc(F)cc1F
Outgoing: 32

Incoming: Name the recorded MIC50 of the item O[C@@](Cn1cnnn1)(c1ccc(F)cc1F)C(F)(F)c1ccc(-c2ccc(OCC(F)(F)F)cc2)cn1 [OTESECONAZOLE] in your answer.
Outgoing: 8

Incoming: Look up and state reported MIC50 for C[C@@H](c1ncncc1F)[C@](O)(Cn1cncn1)c1ccc(F)cc1F [VORICONAZOLE]
Outgoing: 2

Incoming: For the compound C[C@@H](n1ncc2cc(Cl)ccc2c1=O)[C@](O)(Cn1cncn1)c1ccc(F)cc1F , give its reported MIC50.
Outgoing: 1

Incoming: Indicate its recorded MIC50; the compound in question is C[C@@H](n1ccc2cc(Cl)ccc2c1=O)[C@](O)(Cn1cnnn1)c1ccc(F)cc1F
Outgoing: 0.25

Incoming: For the compound CC[C@@H]([C@H](C)O)n1ncn(-c2ccc(N3CCN(c4ccc(OC[C@@H]5CO[C@@](Cn6cncn6)(c6ccc(F)cc6F)C5)cc4)CC3)cc2)c1=O [POSACONAZOLE] , report MIC50.
Outgoing: 8

----------
Tested on: [Candida] auris
test.description: Antifungal activity against fluconazole resistant Candida auris D12 assessed as inhibition of fungal growth incubated for 48 hrs by CLSI protocol based microbroth dilution method
Type: functional
condition: Candidozyma auris
quantity.measured: MIC50 (µg/mL)
Give a bare numeral; the unit µg/mL is implied.

Incoming: Jot down MIC50 ([Candida] auris) of C[C@@H](c1ncncc1F)[C@](O)(Cn1cncn1)c1ccc(F)cc1F .
Outgoing: 2

Incoming: Consider the molecule C[C@@H](n1ccc2cc(Cl)ccc2c1=O)[C@](O)(Cn1cncn1)c1ccc(F)cc1F tested on [Candida] auris; state its MIC50.
Outgoing: 0.25

Incoming: // fetch MIC50; item: C[C@@H](n1ncc2cc(Cl)ccc2c1=O)[C@](O)(Cn1cncn1)c1ccc(F)cc1F ; system: [Candida] auris
Outgoing: 0.5

Incoming: Write down the reported MIC50 (system: [Candida] auris) of C[C@@H](n1ncc2cc(Cl)ccc2c1=O)[C@](O)(Cn1cnnn1)c1ccc(F)cc1F
Outgoing: 8

Incoming: Answer with MIC50 of C[C@@H](n1cnc2cc(Cl)ccc2c1=O)[C@](O)(Cn1cncn1)c1ccc(F)cc1F measured for [Candida] auris.
Outgoing: 0.5

Incoming: Report value: MIC50, system: [Candida] auris, molecule: O[C@@](Cn1cnnn1)(c1ccc(F)cc1F)C(F)(F)c1ccc(-c2ccc(OCC(F)(F)F)cc2)cn1
Outgoing: 4

Incoming: # return MIC50 of C[C@@H](n1cnc2cc(Cl)ccc2c1=O)[C@](O)(Cn1cnnn1)c1ccc(F)cc1F (system: [Candida] auris)
Outgoing: 8

Incoming: Tell me its MIC50 on [Candida] auris: CC[C@@H]([C@H](C)O)n1ncn(-c2ccc(N3CCN(c4ccc(OC[C@@H]5CO[C@@](Cn6cncn6)(c6ccc(F)cc6F)C5)cc4)CC3)cc2)c1=O
Outgoing: 0.5

Incoming: // fetch MIC50; item: C[C@@H]1[C@H](O)[C@@H](C)/C=C/C=C/C=C/C=C/C=C/C=C/C=C/[C@H](O[C@@H]2O[C@H](C)[C@@H](O)[C@H](N)[C@@H]2O)C[C@@H]2O[C@](O)(C[C@@H](O)C[C@@H](O)[C@H](O)CC[C@@H](O)C[C@@H](O)CC(=O)O[C@H]1C)C[C@H](O)[C@H]2C(=O)O ; system: [Candida] auris
Outgoing: 4

Values were extracted from ChEMBL document CHEMBL5543144.
